target: Nrf2-Keap1 complex (Homo sapiens); experiment: cell-based; assay type: cell-based; conditions: 3 h, read-out: Activation 200 nL
MEASURED_METRIC: activation at 32 µM
State the value with its unit after it.

Some entries whose results are on file:
[
  {
    "COMPOUND": "O=C(O)c1cc(O)c2c(c1)[C@@H]([C@H]1c3cc(C(=O)O)cc(O)c3C(=O)c3c(O[C@H]4O[C@H](CO)[C@@H](O)[C@H](O)[C@H]4O)cccc31)c1cccc(O[C@H]3O[C@H](CO)[C@@H](O)[C@H](O)[C@H]3O)c1C2=O [SENNOSIDEA, reference compound]",
    "RESULT": "-24%"
  },
  {
    "COMPOUND": "O=C1C=CC(=O)c2c(O)cccc21 [JUGLONE]",
    "RESULT": "95%"
  }
]

Now, please, on to the next compound.
Using the record for COc1ccc2cc1Oc1ccc(cc1)C[C@H]1c3cc(c(OC)cc3CCN1C)Oc1c(OC)c(OC)cc3c1[C@H](C2)N(C)CC3 [TETRANDRINE] , state its measured activation at 32 µM.
18%

---

Quick reference: activation at 16 µM of the listed items.
molecular target: Nrf2-Keap1 complex (Homo sapiens, UniProt Q14145); assay: cell-based; format: cell-based; details: 3 h, read-out: Activation 100 nL
Sequence (Q14145 whole entry, one chain of several): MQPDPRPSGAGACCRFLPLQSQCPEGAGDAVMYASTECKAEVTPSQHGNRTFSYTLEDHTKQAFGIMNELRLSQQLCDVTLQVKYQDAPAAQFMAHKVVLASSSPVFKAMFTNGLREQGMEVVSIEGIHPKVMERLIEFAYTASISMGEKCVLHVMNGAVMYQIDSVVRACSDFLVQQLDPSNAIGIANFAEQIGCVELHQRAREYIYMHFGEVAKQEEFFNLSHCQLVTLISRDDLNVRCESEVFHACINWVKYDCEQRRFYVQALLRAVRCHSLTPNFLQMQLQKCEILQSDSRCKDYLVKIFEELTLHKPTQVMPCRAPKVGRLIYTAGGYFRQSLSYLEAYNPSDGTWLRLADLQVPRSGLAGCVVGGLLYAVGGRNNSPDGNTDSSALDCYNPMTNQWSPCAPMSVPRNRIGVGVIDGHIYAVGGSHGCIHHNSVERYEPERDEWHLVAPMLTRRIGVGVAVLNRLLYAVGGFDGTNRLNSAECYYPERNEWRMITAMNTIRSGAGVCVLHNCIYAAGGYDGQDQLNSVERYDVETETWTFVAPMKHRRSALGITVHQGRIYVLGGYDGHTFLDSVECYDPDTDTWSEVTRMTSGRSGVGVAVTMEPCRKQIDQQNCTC
Respond with the bare value in %.

Given COc1cc(/C=C/CO)ccc1O , report its activation at 16 µM on Nrf2-Keap1 complex (Homo sapiens, UniProt Q14145).
125

---

target: Nrf2-Keap1 complex (Homo sapiens, UniProt Q14145); assay: cell-based; type: cell-based; settings: Table 2; 100 nL compound; screen run at 16 and 32 μM, 3 hr
Property: 100 nL (luminescence); scope: individual compounds
No unit in the answer, only the number.

[
  {
    "COMPOUND": "O=C1c2ccccc2C(=O)c2c(O)c(O)cc(O)c21",
    "100 nL (luminescence)": 1176
  },
  {
    "COMPOUND": "COc1cc(O)c2c(=O)cc(C)oc2c1CC=C(C)C",
    "100 nL (luminescence)": 772
  },
  {
    "COMPOUND": "COc1ccc(C(=O)/C=C/c2ccccc2)cc1",
    "100 nL (luminescence)": 2400
  },
  {
    "COMPOUND": "O=C1CC(c2ccc(O)cc2)Oc2ccccc21 (stereo not drawn) [4′-HYDROXYFLAVANONE]",
    "100 nL (luminescence)": 1752
  },
  {
    "COMPOUND": "COC(=O)NC(=S)Nc1ccccc1NC(=S)NC(=O)OC",
    "100 nL (luminescence)": 712
  }
]

Recall and state the measured 100 nL (luminescence) for CC(=O)Oc1cc2c(cc1OC(C)=O)[C@@H]1c3ccc(OC(C)=O)c(OC(C)=O)c3OC[C@]1(OC(C)=O)C2 [HAEMATOXYLINPENTAACETATE] .
1040

Give 100 nL (luminescence) for C[C@]12C=CC(=O)C=C1CC[C@@H]1[C@@H]2CC[C@]2(C)C(=O)CC[C@@H]12
1444

Identify the reported 100 nL (luminescence) for the following entry. O=c1c(-c2ccc(O)cc2)coc2cc(O)cc(O)c12
1980

Retrieve 100 nL (luminescence) measured for S=c1ccss1 and print it.
5416

---

molecular target: Nrf2-Keap1 complex (Homo sapiens); assay: cell-based; type: cell-based; conditions: Table 2; 200 nL compound; screen run at 16 and 32 μM, 3 hr
Item-by-item account of 200 nL (luminescence)

Solved cases (3 shown):
[
  {
    "COMPOUND": "CC1(C)C=CC(=O)[C@@]2(C)C1CC(=O)[C@]1(C)C2CC[C@@]2(C)[C@H](c3ccoc3)OC(=O)C3OC321 (some centres unmarked)",
    "RESULT": 3040
  },
  {
    "COMPOUND": "S=c1ccss1",
    "RESULT": 2832
  },
  {
    "COMPOUND": "O=C(O)/C=C/c1ccc(O)c(O)c1 [[…]]",
    "RESULT": 1840
  }
]

Give the reported 200 nL (luminescence) for this compound. Oc1nc2cc(Cl)c(Cl)cc2nc1O [2,3-DIHYDROXY-6,7-DICHLOROQUINOXALINE]
1992

Give recorded 200 nL (luminescence). C=C1CC[C@H]2O[C@]2(C)CC[C@@H]2[C@@H]1CC2(C)C [CARYLOPHYLLENEOXIDE]
488

---

molecular target: Nrf2-Keap1 complex (Homo sapiens, UniProt Q14145); test: cell-based; format: cell-based; conditions: Table 2; 200 nL compound; screen run at 16 and 32 μM, 3 hr
Property: 200 nL (luminescence); scope: individual compounds
Write no unit; give the number alone.

Supply reported 200 nL (luminescence) belonging to this compound: COC(=O)c1c(C)cc(O)cc1O [METHYLORSELLINATE]
368

Specify reported 200 nL (luminescence) for the compound shown: Cc1coc2c1C(=O)C(=O)c1c-2ccc2c1CCCC2(C)C [TANSHINONEIIA]
2452

Quickly give me recorded 200 nL (luminescence) for C[C@@](Cc1ccc(O)c(O)c1)(NN)C(=O)O [CARBIDOPA, reference compound]
1900

Report 200 nL (luminescence) for CCCCC1C(=O)N(c2ccccc2)N(c2ccc(O)cc2)C1=O (stereo not drawn) [OXYPHENBUTAZONE, reference compound]
3084

Return 200 nL (luminescence) for the following compound: COc1cc2c(c(OC)c1OC)-c1ccc(=O)c(O)cc1[C@@H](NC(C)=O)CC2 [COLCHICEINE]
584

Please report 200 nL (luminescence) for the following compound: O=C1c2ccccc2C(=O)c2c(O)c(O)cc(O)c21 [PURPURIN]
952

Please look at this compound and report its 200 nL (luminescence): O=C1C=C2C=C[C@@H]3C[C@@]2(O1)[C@H]1CCCCN31 [SECURININE]
176

Specify measured 200 nL (luminescence) for O=C1OC(=O)[C@H]2[C@@H]1[C@@H]1CC[C@H]2O1 [NORCANTHARIDIN] .
572

Give the value of 200 nL (luminescence) reported for the following: CC(=O)O[C@@H]1CC2C(C)(C)[C@H](O)CC[C@]2(C)C2CC[C@@]3(C)[C@H](c4ccoc4)OC(=O)C4OC43[C@@]21C (stereo partly drawn) [alpha-DIHYDROGEDUNOL]
1008

---

target: Nrf2-Keap1 complex (Homo sapiens, UniProt Q14145); experiment: cell-based; assay type: cell-based; settings: 3 h, read-out: Activation 100 nL
MEASURED_METRIC: activation at 16 µM (%)
Numeric answer only, unit % assumed.

Sample records with activation at 16 µM:
[
  {
    "COMPOUND": "COc1cc([C@@H]2c3cc4c(cc3[C@@H](O[C@@H]3O[C@@H]5CO[C@@H](C)O[C@H]5[C@H](O)[C@H]3O)[C@H]3COC(=O)[C@H]23)OCO4)cc(OC)c1O [ETOPOSIDE, reference compound]",
    "TARGET_OR_SYSTEM": "Nrf2-Keap1 complex (Homo sapiens, UniProt Q14145)",
    "MEASURED_METRIC": "activation at 16 µM",
    "UNIT_TEXT": "%",
    "QUANTITATIVE_READOUT": 40
  },
  {
    "COMPOUND": "O=C(/C=C/c1ccccc1)c1ccc(O)cc1 [4′-HYDROXYCHALCONE]",
    "TARGET_OR_SYSTEM": "Nrf2-Keap1 complex (Homo sapiens, UniProt Q14145)",
    "MEASURED_METRIC": "activation at 16 µM",
    "UNIT_TEXT": "%",
    "QUANTITATIVE_READOUT": 217
  },
  {
    "COMPOUND": "Oc1ccc2c(c1)OCC1c3cc4c(cc3OC21)OCO4 (stereo not shown) [MAACKIAIN]",
    "TARGET_OR_SYSTEM": "Nrf2-Keap1 complex (Homo sapiens, UniProt Q14145)",
    "MEASURED_METRIC": "activation at 16 µM",
    "UNIT_TEXT": "%",
    "QUANTITATIVE_READOUT": 74
  }
]

Now for the compound whose activation at 16 µM we want.
State recorded activation at 16 µM with Nrf2-Keap1 complex (Homo sapiens, UniProt Q14145), entry COc1ccc(/C=C/C(=O)c2ccc(O)cc2O)cc1OC [2′,4′-DIHYDROXY-3,4-DIMETHOXYCHALCONE] , no comment.
321

---

target: Nrf2-Keap1 complex (Homo sapiens); assay: cell-based; type: cell-based; conditions: Table 2; 200 nL compound; screen run at 16 and 32 μM, 3 hr
Counter-ions that a name gives are not always drawn.
MEASURED_METRIC: 200 nL (luminescence)
Give your answer as a number; write no unit.

Worked cases, 200 nL (luminescence) given:
[
  {
    "MOLECULE": "COc1cccc(O)c1O",
    "200 nL (luminescence)": 116
  },
  {
    "MOLECULE": "CC(C)c1ccc2c(c1O)CC[C@H]1C3=C(CC[C@]21C)C(=O)OC3 [TRIPTOPHENOLIDE]",
    "200 nL (luminescence)": 390
  }
]

State, in one line, measured 200 nL (luminescence) of NCCCCNCCCN [SPERMIDINETRIHYDROCHLORIDE]
860

Return the recorded 200 nL (luminescence) value; entry: Cc1c(O)c(O)cc2c1CC=C1[C@@]2(C)CC[C@@]2(C)[C@@H]3C[C@](C)(C(=O)O)CC[C@]3(C)CC[C@]12C [DIHYDROCELASTROL]
88

For the molecule C=C1C2=CC(=O)O[C@@H](c3ccoc3)[C@]2(C)CC[C@@H]1[C@@]1(C)C=CC(=O)C(C)(C)[C@@H]1CC(=O)OC , report 200 nL (luminescence).
1944

Return the recorded 200 nL (luminescence) value; entry: O=C1C[C@@H](c2ccc(O)c(O)c2)Oc2cc(O)cc(O)c21
768

Answer with the recorded 200 nL (luminescence) for the molecule listed here: CC(C)[C@@H](C)/C=C/[C@@H](C)[C@H]1CC[C@H]2C3=CC=C4C[C@@H](O)CC[C@]4(C)[C@H]3CC[C@]12C
1640

For the molecule CC(C)=CCc1c2c(c(O)c3c(=O)c(O)c(-c4ccccc4)oc13)C=CC(C)(C)O2 , report 200 nL (luminescence).
800
